Numbers sourced from patent US20180244611A1.

Recorded EC50 values for a group of compounds are listed next.
subject of test: F508delCFTR (Homo sapiens, UniProt P13569, DEL508-508)
Construct: expressed in transfected cells; host or cells: CFBE41o- human lung-derived epithelial cells (CFBE41o-F508delCFTR-HRP), doxycycline-inducible
Sequence (P13569 with tags, fused parts or gaps DEL508-508): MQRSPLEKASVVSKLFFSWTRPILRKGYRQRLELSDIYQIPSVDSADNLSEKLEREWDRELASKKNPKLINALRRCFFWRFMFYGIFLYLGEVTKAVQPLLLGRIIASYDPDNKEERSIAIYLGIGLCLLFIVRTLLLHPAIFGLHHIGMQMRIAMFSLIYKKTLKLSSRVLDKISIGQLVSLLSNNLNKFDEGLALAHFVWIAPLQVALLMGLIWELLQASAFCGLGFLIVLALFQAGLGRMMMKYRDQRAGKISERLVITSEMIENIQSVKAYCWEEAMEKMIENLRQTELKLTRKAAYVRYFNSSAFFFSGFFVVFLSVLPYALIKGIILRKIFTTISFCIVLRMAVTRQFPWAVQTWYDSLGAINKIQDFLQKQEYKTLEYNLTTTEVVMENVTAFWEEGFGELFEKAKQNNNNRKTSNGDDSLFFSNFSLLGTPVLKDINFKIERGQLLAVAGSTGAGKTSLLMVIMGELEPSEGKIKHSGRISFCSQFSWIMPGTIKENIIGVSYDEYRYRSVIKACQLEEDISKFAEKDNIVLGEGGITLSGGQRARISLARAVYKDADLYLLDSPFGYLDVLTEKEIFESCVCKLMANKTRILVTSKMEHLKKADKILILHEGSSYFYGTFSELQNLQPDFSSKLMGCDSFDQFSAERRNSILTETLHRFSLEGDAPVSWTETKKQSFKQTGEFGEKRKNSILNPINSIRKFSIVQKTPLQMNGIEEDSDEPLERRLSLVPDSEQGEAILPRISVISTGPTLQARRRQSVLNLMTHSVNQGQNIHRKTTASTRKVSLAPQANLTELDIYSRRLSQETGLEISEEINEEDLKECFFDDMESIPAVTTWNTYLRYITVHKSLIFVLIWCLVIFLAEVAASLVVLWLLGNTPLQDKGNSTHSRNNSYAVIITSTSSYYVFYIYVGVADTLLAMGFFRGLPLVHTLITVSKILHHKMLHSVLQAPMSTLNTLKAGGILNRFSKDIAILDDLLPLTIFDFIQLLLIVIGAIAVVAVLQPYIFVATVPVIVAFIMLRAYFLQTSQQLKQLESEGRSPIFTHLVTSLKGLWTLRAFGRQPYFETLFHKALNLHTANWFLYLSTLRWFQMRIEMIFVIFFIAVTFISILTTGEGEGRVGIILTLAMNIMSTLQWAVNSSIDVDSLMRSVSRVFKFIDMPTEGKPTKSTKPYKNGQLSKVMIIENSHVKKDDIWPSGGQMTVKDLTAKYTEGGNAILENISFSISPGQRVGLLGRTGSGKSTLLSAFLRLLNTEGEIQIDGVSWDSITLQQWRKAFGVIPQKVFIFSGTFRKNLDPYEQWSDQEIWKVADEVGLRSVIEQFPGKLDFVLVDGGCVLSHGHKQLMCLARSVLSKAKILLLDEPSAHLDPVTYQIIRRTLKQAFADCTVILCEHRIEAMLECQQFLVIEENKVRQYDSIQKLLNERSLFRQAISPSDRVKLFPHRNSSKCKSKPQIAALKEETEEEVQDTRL
test summary: Cell Surface Expression-Horse Radish Peroxidase (CSE-HRP) assay, test compound without co-corrector
Type: cell-based
details: test compound without co-corrector

{"columns": ["compound", "EC50"],
 "data": [
  ["CCC1(C(=O)NS(=O)(=O)c2cccc(Cl)c2Cl)CCc2c(Cl)cccc21 (centres unmarked)", "< 3 µM"],
  ["O=C(NS(=O)(=O)c1cccc2ccccc12)[C@@H]1CCCc2cccc(Cl)c21", "< 3 µM"],
  ["COc1ccc(C2CCC2)c2c1C(C(=O)NS(=O)(=O)c1cccc3cnn(C)c13)C2 (centres unmarked)", "< 3 µM"],
  ["COc1cc(-c2cccc3c2CCC3C(=O)NS(=O)(=O)c2ccccc2C)ccn1 (centres unmarked)", "3 to 10 µM"],
  ["CC[C@]1(C(=O)NS(=O)(=O)c2cccc3ccccc23)CCc2c(Cl)cccc21", "< 3 µM"],
  ["COc1ccc(Br)c2c1CCC[C@@H]2C(=O)NS(=O)(=O)c1cccc2ccccc12", "3 to 10 µM"],
  ["CC(C)Oc1ccc(Br)c2c1CCCC2C(=O)NS(=O)(=O)c1cccc2ccccc12 (centres unmarked)", "< 3 µM"],
  ["O=C(NS(=O)(=O)c1cccc2ccccc12)C1(CC2CC2)CCc2c(Cl)cccc21 (centres unmarked)", "< 3 µM"]
]}

---

Each item that follows carries a reported Emax.
subject of test: F508delCFTR (Homo sapiens, UniProt P13569, DEL508-508)
Construct: expressed in transfected cells; host or cells: CFBE41o- human lung-derived epithelial cells (CFBE41o-F508delCFTR-HRP), doxycycline-inducible
test summary: Cell Surface Expression-Horse Radish Peroxidase (CSE-HRP) assay, test compound without co-corrector;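 as to Emax: percent of on-plate 2 µM positive control corrector response over DMSO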
Format: cell-based
details: maximum at any tested concentration, normalized to positive control, without co-corrector
measured attribute: Emax

{"columns": ["molecule", "measured attribute", "value observed"],
 "data": [
  ["CCC1(C(=O)NS(=O)(=O)c2ccccc2Cl)CCc2c(Cl)cccc21 (centres unmarked)", "Emax", "< 50%"],
  ["COc1ncc(Cl)c2c1C(C(=O)NS(=O)(=O)c1cccc3ccccc13)CC2 (centres unmarked)", "Emax", "≥ 150%"],
  ["COc1ccc(C2CCC2)c2c1[C@@H](C(=O)NS(=O)(=O)c1cccc3cnn(C)c13)CC2 (single isomer, unassigned)", "Emax", "≥ 150%"],
  ["COc1ccc(Br)c2c1C(C(=O)NS(=O)(=O)c1cccc3ccccc13)CCC2 (centres unmarked)", "Emax", "≥ 150%"],
  ["COc1cccc2c1CCC2C(=O)NS(=O)(=O)c1c(C)nc(O)nc1O (centres unmarked)", "Emax", "< 50%"]
]}

---

subject of test: F508delCFTR (Homo sapiens, UniProt P13569, DEL508-508)
Construct: expressed in transfected cells; host or cells: CFBE41o- human lung-derived epithelial cells (CFBE41o-F508delCFTR-HRP), doxycycline-inducible
test summary: Cell Surface Expression-Horse Radish Peroxidase (CSE-HRP) assay, test compound with co-corrector;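 also: percent of 2 µM positive control corrector over DMSO; co-corrector is that same compound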
Type: cell-based
details: maximum at any tested concentration, normalized to positive control, with 2 μM co-corrector

{"columns": ["molecule", "Maximum % activity (with co-corrector)"],
 "data": [
  ["CC[C@@]1(C(=O)NS(=O)(=O)c2cccc3ccccc23)CCCc2cccc(Cl)c21", "+++ (≥350)"],
  ["COc1cccc(COc2ccc(Br)c3c2CCCC3C(=O)NS(=O)(=O)c2cccc3ccccc23)c1 (centres unmarked)", "++ (≥150 and <350)"],
  ["Cc1ccccc1S(=O)(=O)NC(=O)[C@]1(C)CCc2ccc(Cl)cc21", "++ (≥150 and <350)"],
  ["COc1cccc2c1CC[C@]2(C)C(=O)NS(=O)(=O)c1cccc2ccccc12", "+++ (≥350)"],
  ["COc1ccc(C2CCC2)c2c1[C@H](C(=O)NS(=O)(=O)c1cccc3ncccc13)C2 (single isomer, unassigned)", "+++ (≥350)"],
  ["COc1cccc2c1CCC2C(=O)NS(=O)(=O)c1cccc(Cl)c1 (centres unmarked)", "++ (≥150 and <350)"],
  ["COc1ncc(Br)c2c1C(C(=O)NS(=O)(=O)c1cccc3ccccc13)CC2 (centres unmarked)", "+++ (≥350)"],
  ["COc1cccc2c1CCC2C(=O)NS(=O)(=O)c1c(CO)c(C)nn1C (centres unmarked)", "+ (<150)"],
  ["COCCCS(=O)(=O)NC(=O)C1CCc2c(OC)cccc21 (centres unmarked)", "+ (<150)"],
  ["COc1cccc2c1CCC2C(=O)NS(=O)(=O)c1cccc([N+](=O)[O-])c1 (centres unmarked)", "+ (<150)"],
  ["COc1ccc(C2CCC2)c2c1[C@@H](C(=O)NS(=O)(=O)c1cccc3nc(C)ccc13)CC2", "+++ (≥350)"],
  ["C[C@@]1(C(=O)NS(=O)(=O)c2cccc3ccccc23)CCc2c1ccc1c2OCO1", "+++ (≥350)"],
  ["COc1cccc2c1[C@@H](C(=O)NS(=O)(=O)c1cccc3ncccc13)CC2(C)C", "+++ (≥350)"],
  ["CCC1(C(=O)NS(=O)(=O)c2ccccc2OC(F)F)CCc2c(Cl)cccc21 (centres unmarked)", "+ (<150)"],
  ["O=C(NS(=O)(=O)c1cccc2ccccc12)C1(Cc2ccccc2)CCc2c(Cl)cccc21 (centres unmarked)", "+++ (≥350)"],
  ["COc1cccc2c1C(C(=O)NS(=O)(=O)c1cccc3ccccc13)C2 (centres unmarked)", "+++ (≥350)"],
  ["COc1ccccc1S(=O)(=O)NC(=O)C1CCc2c(Cl)cccc21 (centres unmarked)", "+ (<150)"]
]}

---

subject of test: F508delCFTR (Homo sapiens, UniProt P13569, DEL508-508)
Construct: expressed in transfected cells; host or cells: CFBE41o- human lung-derived epithelial cells (CFBE41o-F508delCFTR-HRP), doxycycline-inducible
test summary: Cell Surface Expression-Horse Radish Peroxidase (CSE-HRP) assay, test compound without co-corrector
Type: cell-based
details: CSE-HRP assay, test compound without co-corrector
Catalogue of EC50 readings, one per entry.

{"columns": ["molecule", "EC50"],
 "data": [
  ["COCCN(C)CCC1(C(=O)NS(=O)(=O)c2cccc3ccccc23)CCc2c(Cl)cccc21 (stereo not drawn)", "3 to 10 µM"],
  ["Cc1ccccc1S(=O)(=O)NC(=O)C1Cc2ccccc21 (stereo not drawn)", "≥ 10 µM"],
  ["Cc1ccccc1S(=O)(=O)NC(=O)C1CCc2c(-c3c(C)nn(C)c3C)cccc21 (stereo not drawn)", "≥ 10 µM"],
  ["CCC1(C(=O)NS(=O)(=O)C2(C)CC2)CCc2c(Cl)cccc21 (stereo not drawn)", "3 to 10 µM"],
  ["COc1ccc(Br)c2c1C(C(=O)NS(=O)(=O)c1cccnc1OC)CC2 (stereo not drawn)", "3 to 10 µM"],
  ["CCOc1ccc(S(=O)(=O)NC(=O)C2CCc3c(Br)ccc(OC)c32)c2ccccc12 (stereo not drawn)", "3 to 10 µM"],
  ["CCC1(C(=O)NS(=O)(=O)c2ncccc2C(=O)N(C)C)CCc2c(Cl)cccc21 (stereo not drawn)", "≥ 10 µM"],
  ["CCC1(C(=O)NS(=O)(=O)c2ccc(Oc3ccccc3)cc2)CCc2c(Cl)cccc21 (stereo not drawn)", "≥ 10 µM"],
  ["CCC1(C(=O)NS(=O)(=O)c2c(Cl)nc3sccn23)CCc2c(Cl)cccc21 (stereo not drawn)", "≥ 10 µM"],
  ["COc1ccc(C(=O)O)c2c1C(C(=O)NS(=O)(=O)c1cccc3ccccc13)CC2 (stereo not drawn)", "≥ 10 µM"],
  ["Cc1ccccc1S(=O)(=O)NC(=O)C1CCc2c(-c3ccnn3C)cccc21 (stereo not drawn)", "≥ 10 µM"],
  ["CCC1(C(=O)NS(=O)(=O)c2cccnc2Cl)CCc2c(Cl)cccc21 (stereo not drawn)", "≥ 10 µM"],
  ["Cc1ccccc1S(=O)(=O)NC(=O)C1CCc2c(-c3ccsc3)cccc21 (stereo not drawn)", "3 to 10 µM"],
  ["CCC1(C(=O)NS(=O)(=O)c2cccc(F)c2C#N)CCc2c(Cl)cccc21 (stereo not drawn)", "≥ 10 µM"],
  ["CCC1(C(=O)NS(=O)(=O)c2ccc(OC)cc2)CCc2c(Cl)cccc21 (stereo not drawn)", "3 to 10 µM"]
]}

---

subject of test: F508delCFTR (Homo sapiens, UniProt P13569, DEL508-508)
Construct: expressed in transfected cells; host or cells: CFBE41o- human lung-derived epithelial cells (CFBE41o-F508delCFTR-HRP), doxycycline-inducible
test summary: Cell Surface Expression-Horse Radish Peroxidase (CSE-HRP) assay, test compound with co-corrector;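 also: percent of 2 µM positive control corrector over DMSO; co-corrector is that same compound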
Assay type: cell-based
details: maximum at any tested concentration, normalized to positive control, with 2 μM co-corrector

{"columns": ["compound", "Maximum % activity (with co-corrector)"],
 "data": [
  ["COc1cccc2c1CCC2C(=O)NS(=O)(=O)c1ccc(C)cc1 (centres unmarked) [III-23]", "++ (≥150 and <350)"],
  ["COc1cccc2c1CCC2C(=O)NS(=O)(=O)c1ccc(CN(C)C)cc1 (centres unmarked) [III-61]", "+ (<150)"],
  ["Cc1ccccc1S(=O)(=O)NC(=O)C1(C)CCc2ccccc21 (centres unmarked) [II-21]", "++ (≥150 and <350)"],
  ["O=C(NS(=O)(=O)c1cccc2ccccc12)C1CCCc2c(OC3COC3)ccc(Br)c21 (centres unmarked) [II-91]", "+++ (≥350)"],
  ["Cc1ccccc1S(=O)(=O)NC(=O)C1CCc2c(Br)cccc21 (centres unmarked) [II-33]", "+++ (≥350)"],
  ["COc1ccc(C2CCC2)c2c1[C@@H](C(=O)NS(=O)(=O)c1cccc3cnn(C)c13)CC2 (single isomer, unassigned) [Example I-141]", "+++ (≥350)"],
  ["COc1cccc2c1CCC2C(=O)NS(=O)(=O)Cc1ccccc1 (centres unmarked) [III-21]", "+ (<150)"],
  ["COc1cc2c(cc1OC)C(C(=O)NS(=O)(=O)c1ccccc1C)CCC2 (centres unmarked) [II-15]", "+ (<150)"],
  ["COc1cccc2c1C(C(=O)NS(=O)(=O)c1cccc3ccccc13)CC2(C)C (centres unmarked) [Example I-149]", "+++ (≥350)"],
  ["CC1(C(=O)NS(=O)(=O)c2cccc3ccccc23)CCc2cccc(Cl)c21 (centres unmarked) [Example I-14]", "+++ (≥350)"],
  ["CC1(C(=O)NS(=O)(=O)Cc2ccccc2)CCc2c(Cl)cccc21 (centres unmarked) [III-3]", "+ (<150)"],
  ["O=C(NS(=O)(=O)c1cccc2ccccc12)C1CCc2ccccc21 (centres unmarked) [II-68]", "++ (≥150 and <350)"],
  ["COc1cccc2c1CCCC2C(=O)NS(=O)(=O)c1cccc2cccnc12 (centres unmarked) [II-43]", "++ (≥150 and <350)"],
  ["COc1cccc2c1C(C(=O)NS(=O)(=O)c1cccc3ncccc13)CC2(C)C (centres unmarked) [Example I-152]", "+++ (≥350)"],
  ["CCC1(C(=O)NS(=O)(=O)c2ccccc2)CCc2c(Cl)cccc21 (centres unmarked) [II-66]", "++ (≥150 and <350)"],
  ["COc1cccc2c1CCC2C(=O)NS(=O)(=O)c1cccnc1C#N (centres unmarked) [III-83]", "+ (<150)"],
  ["COc1cccc2c1CCC2C(=O)NS(=O)(=O)c1cc(-c2nc3c([nH]2)c(=O)n(C)c(=O)n3C)ccc1Cl (centres unmarked) [III-58]", "++ (≥150 and <350)"],
  ["CCC1(C(=O)NS(=O)(=O)c2ccccc2-c2ccccc2)CCc2c(Cl)cccc21 (centres unmarked) [II-64]", "++ (≥150 and <350)"],
  ["COc1ccc2c(c1OC)CCC2C(=O)NS(=O)(=O)c1ccccc1C (centres unmarked) [III-72]", "+ (<150)"],
  ["CCC1(C(=O)NS(=O)(=O)c2cccc(Cl)c2COC)CCc2c(Cl)cccc21 (centres unmarked) [II-57]", "++ (≥150 and <350)"],
  ["COc1ccc(Cl)c2c1C(C(=O)NS(=O)(=O)c1cccc3ccccc13)CC2 (centres unmarked) [Example I-59]", "+++ (≥350)"],
  ["COc1ccc(Br)c2c1C(C(=O)NS(=O)(=O)c1cccc3c(OC)cccc13)CC2 (centres unmarked) [II-133]", "+++ (≥350)"],
  ["COc1ccc(C)c2c1CC[C@@H]2C(=O)NS(=O)(=O)c1cccc2ccccc12 [Example I-109]", "+++ (≥350)"],
  ["O=C(NS(=O)(=O)c1ccccc1Cl)C1CCc2c(Cl)cccc21 (centres unmarked) [II-6]", "++ (≥150 and <350)"],
  ["COc1ccc(C#N)c2c1C(C(=O)NS(=O)(=O)c1cccc3ccccc13)CCC2 (centres unmarked) [II-111]", "+++ (≥350)"],
  ["COc1cccc2c1[C@H](C(=O)NS(=O)(=O)c1cccc3ncccc13)CC2(C)C [Example I-154]", "+++ (≥350)"],
  ["CCC1(C(=O)NS(=O)(=O)c2cccc3ccccc23)CCc2c(Br)ccc(OC)c21 (centres unmarked) [Example I-28]", "+++ (≥350)"],
  ["CC[C@]1(C(=O)NS(=O)(=O)c2cccc3ccccc23)CCCc2cccc(Cl)c21 [Example I-64]", "+++ (≥350)"],
  ["COc1cccc2c1CCC2C(=O)NS(=O)(=O)c1cncc(Br)c1 (centres unmarked) [III-65]", "+ (<150)"],
  ["COc1ccc(-c2cccc(OC(F)(F)F)c2)c2c1C(C(=O)NS(=O)(=O)c1cccc3ccccc13)CCC2 (centres unmarked) [II-119]", "+++ (≥350)"],
  ["COc1ccc(Br)c2c1C(C(=O)NS(=O)(=O)c1cccc3c(O)cccc13)CC2 (centres unmarked) [Example I-105]", "+++ (≥350)"],
  ["CCC1(C(=O)NS(=O)(=O)c2cccc(Cl)c2Cl)CCc2c(Cl)cccc21 (centres unmarked) [II-107]", "++ (≥150 and <350)"],
  ["COc1ccc(CC(C)C)c2c1C(C(=O)NS(=O)(=O)c1cccc3ccccc13)CCC2 (centres unmarked) [Example I-68]", "+++ (≥350)"],
  ["COc1cccc2c1CCC2C(=O)NS(=O)(=O)c1c(Cl)cccc1Cl (centres unmarked) [III-76]", "+ (<150)"],
  ["COc1ccc(Br)c2c1[C@@H](C(=O)NS(=O)(=O)c1cccc3ccccc13)CC2 [Example I-51]", "++ (≥150 and <350)"]
]}
